Consider the following variants and their measured self-cleavage readings.
B1: LINE1-mini (parent)
chain: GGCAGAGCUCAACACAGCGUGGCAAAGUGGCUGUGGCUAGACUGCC

# Variants of: B1
# Method Description: self-cleavage, relative activity (ratio to wild type); higher = more cleavage; in vitro, sequencing; the parent is a self-cleaving ribozyme
Value Type: self-cleavage

>>> df
    mutation_label     value_type  measured_result
 0       G40A U43A  self-cleavage             0.06
 1       A12G A39C  self-cleavage             0.04
 2       C23U C37A  self-cleavage             0.04
 3       U34A G36C  self-cleavage             0.03
 4        A4U G40A  self-cleavage             0.17
 5       A14G C23G  self-cleavage             0.45
 6       A26U U38G  self-cleavage             0.03
 7        A6C A41U  self-cleavage              0.1
 8       A16G G29A  self-cleavage             1.23
 9        G5U C31A  self-cleavage             0.04
10       G27A U38C  self-cleavage             0.26
11       G17C C42A  self-cleavage             0.05
12       C13G C23G  self-cleavage             0.13
13       G33A C45U  self-cleavage              0.1
14       G36U A39U  self-cleavage             0.07
15        A4C G33C  self-cleavage             0.04
16       A11G A41U  self-cleavage             0.02
17       G21A G35C  self-cleavage             0.19
18       A16C U38A  self-cleavage             0.13
19        U9C A14C  self-cleavage             0.02
20       A14U A39U  self-cleavage             0.57
21       U38G A39C  self-cleavage              0.1
22       G17U C18U  self-cleavage             0.12
23       U38G A41C  self-cleavage             0.02
24       C23G C37A  self-cleavage             0.04
25       G35U C45U  self-cleavage             0.12
26       A39C G44A  self-cleavage             0.08
27       G17A G22C  self-cleavage             0.17
28        A4G U20C  self-cleavage             0.48
29       C10A A39U  self-cleavage             0.24
30       A16U G17A  self-cleavage             0.06
31         A4U G7C  self-cleavage             0.18
32        G2C G30C  self-cleavage             0.23
33       G27U C37A  self-cleavage             0.03
34       G17C A26C  self-cleavage             1.18
35       G21A C45U  self-cleavage             2.04
36       A14C U43G  self-cleavage             0.01
37       U20A A41G  self-cleavage             0.36
38       C18A G36A  self-cleavage             0.13
39       C15U A16G  self-cleavage             0.42
40        C8U G29C  self-cleavage              0.1
41       A11G G21A  self-cleavage             0.05
42       A16C G27A  self-cleavage             0.26
43       A39U C46A  self-cleavage             0.75
44       A16U C23A  self-cleavage             0.19
45        C3G A24U  self-cleavage             0.72
